- experimental-context: in water, 333.15 K
endpoint-name: solubility (mole fraction)
Returns: the value as a bare number; no unit string appended.

Measured solubility (mole fraction) of O=C(O)c1ccc(C(=O)O)o1 : 0.000421

* * *

- experimental-context: in methyl acetate, 338.15 K
endpoint-name: solubility (mole fraction)
Returns: the value as a bare number; no unit string appended.

Measured solubility (mole fraction) of O=C(O)c1ccc(C(=O)O)o1 : 0.000377

* * *

- experimental-context: in acetonitrile, 313.15 K
endpoint-name: solubility (mole fraction)
Returns: the value as a bare number; no unit string appended.

Measured solubility (mole fraction) of O=C(O)c1ccc(C(=O)O)o1 : 6.11e-05

* * *

- experimental-context: in methyl acetate, 328.15 K
endpoint-name: solubility (mole fraction)
Returns: the value as a bare number; no unit string appended.

Measured solubility (mole fraction) of O=C(O)c1ccc(C(=O)O)o1 : 0.000238

* * *

- experimental-context: in isobutanol, 358.15 K
endpoint-name: solubility (mole fraction)
Returns: the value as a bare number; no unit string appended.

Measured solubility (mole fraction) of O=C(O)c1ccc(C(=O)O)o1 : 0.00607

* * *

- experimental-context: in methyl acetate, 313.15 K
endpoint-name: solubility (mole fraction)
Returns: the value as a bare number; no unit string appended.

Measured solubility (mole fraction) of O=C(O)c1ccc(C(=O)O)o1 : 7.78e-05

* * *

- experimental-context: in n-butanol, 328.15 K
endpoint-name: solubility (mole fraction)
Returns: the value as a bare number; no unit string appended.

Measured solubility (mole fraction) of O=C(O)c1ccc(C(=O)O)o1 : 0.00408

* * *

- experimental-context: in acetonitrile, 358.15 K
endpoint-name: solubility (mole fraction)
Returns: the value as a bare number; no unit string appended.

Measured solubility (mole fraction) of O=C(O)c1ccc(C(=O)O)o1 : 0.000409

* * *

- experimental-context: in acetonitrile, 318.15 K
endpoint-name: solubility (mole fraction)

Measured solubility (mole fraction) of O=C(O)c1ccc(C(=O)O)o1 : 9.15e-05

* * *

- experimental-context: in water, 363.15 K
endpoint-name: solubility (mole fraction)
Returns: the value as a bare number; no unit string appended.

Measured solubility (mole fraction) of O=C(O)c1ccc(C(=O)O)o1 : 0.0011

* * *

- experimental-context: in water, 353.15 K
endpoint-name: solubility (mole fraction)
Returns: the value as a bare number; no unit string appended.

Measured solubility (mole fraction) of O=C(O)c1ccc(C(=O)O)o1 : 0.000781

* * *

- experimental-context: in methyl acetate, 348.15 K
endpoint-name: solubility (mole fraction)
Returns: the value as a bare number; no unit string appended.

Measured solubility (mole fraction) of O=C(O)c1ccc(C(=O)O)o1 : 0.000549

* * *

- experimental-context: in water, 343.15 K
endpoint-name: solubility (mole fraction)
Returns: the value as a bare number; no unit string appended.

Measured solubility (mole fraction) of O=C(O)c1ccc(C(=O)O)o1 : 0.000598

* * *

- experimental-context: in MIBK, 348.15 K
endpoint-name: solubility (mole fraction)

Measured solubility (mole fraction) of O=C(O)c1ccc(C(=O)O)o1 : 0.000631

* * *

- experimental-context: in water, 328.15 K
endpoint-name: solubility (mole fraction)
Returns: the value as a bare number; no unit string appended.

Measured solubility (mole fraction) of O=C(O)c1ccc(C(=O)O)o1 : 0.00037

* * *

- experimental-context: in methanol, 323.15 K
endpoint-name: solubility (mole fraction)
Returns: the value as a bare number; no unit string appended.

Measured solubility (mole fraction) of O=C(O)c1ccc(C(=O)O)o1 : 0.0054

* * *

- experimental-context: in water, 358.15 K
endpoint-name: solubility (mole fraction)
Returns: the value as a bare number; no unit string appended.

Measured solubility (mole fraction) of O=C(O)c1ccc(C(=O)O)o1 : 0.000908

* * *

- experimental-context: in methanol, 333.15 K
endpoint-name: solubility (mole fraction)
Returns: the value as a bare number; no unit string appended.

Measured solubility (mole fraction) of O=C(O)c1ccc(C(=O)O)o1 : 0.00801

* * *

- experimental-context: in methyl acetate, 318.15 K
endpoint-name: solubility (mole fraction)
Returns: the value as a bare number; no unit string appended.

Measured solubility (mole fraction) of O=C(O)c1ccc(C(=O)O)o1 : 0.000113

* * *

- experimental-context: in water, 338.15 K
endpoint-name: solubility (mole fraction)
Returns: the value as a bare number; no unit string appended.

Measured solubility (mole fraction) of O=C(O)c1ccc(C(=O)O)o1 : 0.000465

* * *

- experimental-context: in water, 313.15 K
endpoint-name: solubility (mole fraction)
Returns: the value as a bare number; no unit string appended.

Measured solubility (mole fraction) of O=C(O)c1ccc(C(=O)O)o1 : 0.000203

* * *

- experimental-context: in isobutanol, 333.15 K
endpoint-name: solubility (mole fraction)
Returns: the value as a bare number; no unit string appended.

Measured solubility (mole fraction) of O=C(O)c1ccc(C(=O)O)o1 : 0.00323

* * *

- experimental-context: in methanol, 338.15 K
endpoint-name: solubility (mole fraction)
Returns: the value as a bare number; no unit string appended.

Measured solubility (mole fraction) of O=C(O)c1ccc(C(=O)O)o1 : 0.00869

* * *

- experimental-context: in methyl acetate, 323.15 K
endpoint-name: solubility (mole fraction)
Returns: the value as a bare number; no unit string appended.

Measured solubility (mole fraction) of O=C(O)c1ccc(C(=O)O)o1 : 0.000164

* * *

- experimental-context: in acetonitrile, 338.15 K
endpoint-name: solubility (mole fraction)
Returns: the value as a bare number; no unit string appended.

Measured solubility (mole fraction) of O=C(O)c1ccc(C(=O)O)o1 : 0.000212

* * *

- experimental-context: in MIBK, 313.15 K
endpoint-name: solubility (mole fraction)

Measured solubility (mole fraction) of O=C(O)c1ccc(C(=O)O)o1 : 0.000136

* * *

- experimental-context: in MIBK, 333.15 K
endpoint-name: solubility (mole fraction)
Returns: the value as a bare number; no unit string appended.

Measured solubility (mole fraction) of O=C(O)c1ccc(C(=O)O)o1 : 0.000338

* * *

- experimental-context: in acetic acid, 313.15 K
endpoint-name: solubility (mole fraction)
Returns: the value as a bare number; no unit string appended.

Measured solubility (mole fraction) of O=C(O)c1ccc(C(=O)O)o1 : 0.000235

* * *

- experimental-context: in acetonitrile, 323.15 K
endpoint-name: solubility (mole fraction)
Returns: the value as a bare number; no unit string appended.

Measured solubility (mole fraction) of O=C(O)c1ccc(C(=O)O)o1 : 0.000112

* * *

- experimental-context: in isobutanol, 338.15 K
endpoint-name: solubility (mole fraction)
Returns: the value as a bare number; no unit string appended.

Measured solubility (mole fraction) of O=C(O)c1ccc(C(=O)O)o1 : 0.00372

* * *

- experimental-context: in isobutanol, 313.15 K
endpoint-name: solubility (mole fraction)
Returns: the value as a bare number; no unit string appended.

Measured solubility (mole fraction) of O=C(O)c1ccc(C(=O)O)o1 : 0.00168

* * *

- experimental-context: in water, 348.15 K
endpoint-name: solubility (mole fraction)
Returns: the value as a bare number; no unit string appended.

Measured solubility (mole fraction) of O=C(O)c1ccc(C(=O)O)o1 : 0.000641

* * *

- experimental-context: in acetic acid, 343.15 K
endpoint-name: solubility (mole fraction)

Measured solubility (mole fraction) of O=C(O)c1ccc(C(=O)O)o1 : 0.000717

* * *

- experimental-context: in MIBK, 363.15 K
endpoint-name: solubility (mole fraction)
Returns: the value as a bare number; no unit string appended.

Measured solubility (mole fraction) of O=C(O)c1ccc(C(=O)O)o1 : 0.000863

* * *

- experimental-context: in acetonitrile, 333.15 K
endpoint-name: solubility (mole fraction)
Returns: the value as a bare number; no unit string appended.

Measured solubility (mole fraction) of O=C(O)c1ccc(C(=O)O)o1 : 0.000166

* * *

- experimental-context: in acetic acid, 353.15 K
endpoint-name: solubility (mole fraction)
Returns: the value as a bare number; no unit string appended.

Measured solubility (mole fraction) of O=C(O)c1ccc(C(=O)O)o1 : 0.000965

* * *

- experimental-context: in methanol, 318.15 K
endpoint-name: solubility (mole fraction)
Returns: the value as a bare number; no unit string appended.

Measured solubility (mole fraction) of O=C(O)c1ccc(C(=O)O)o1 : 0.00489

* * *

- experimental-context: in acetonitrile, 343.15 K
endpoint-name: solubility (mole fraction)
Returns: the value as a bare number; no unit string appended.

Measured solubility (mole fraction) of O=C(O)c1ccc(C(=O)O)o1 : 0.000248

* * *

- experimental-context: in n-butanol, 318.15 K
endpoint-name: solubility (mole fraction)
Returns: the value as a bare number; no unit string appended.

Measured solubility (mole fraction) of O=C(O)c1ccc(C(=O)O)o1 : 0.00302

* * *

- experimental-context: in isobutanol, 323.15 K
endpoint-name: solubility (mole fraction)
Returns: the value as a bare number; no unit string appended.

Measured solubility (mole fraction) of O=C(O)c1ccc(C(=O)O)o1 : 0.0023
